target: T1, Recombinant Human FGFR2 alpha (IIIc) Fc Chimera Protein, CF (R&D systems, 712-FR-050) (human, UniProt P21802 22-377); test: ELISA on plate-bound FGFR2-Fc
T1 construct: bought; not shown: Fc part of the chimera
T1 sequence (P21802 22-377, change not shown): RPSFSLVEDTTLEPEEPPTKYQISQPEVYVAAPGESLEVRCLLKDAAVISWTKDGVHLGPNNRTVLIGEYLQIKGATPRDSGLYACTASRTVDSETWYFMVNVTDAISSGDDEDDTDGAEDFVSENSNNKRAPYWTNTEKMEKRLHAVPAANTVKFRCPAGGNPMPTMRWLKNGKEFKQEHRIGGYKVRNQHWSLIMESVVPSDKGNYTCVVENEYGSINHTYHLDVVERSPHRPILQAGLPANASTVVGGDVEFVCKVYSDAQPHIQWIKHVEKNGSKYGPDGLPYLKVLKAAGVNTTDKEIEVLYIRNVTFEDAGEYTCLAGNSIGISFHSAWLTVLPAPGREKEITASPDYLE
Bridge positions count the residues as written; N and C are the ends. Ends that are not written are not given here. COCH2 = acetyl group that carries the bridge
READOUT_TYPE: ELISA luminescence signal at 10 nmol/L peptide, relative to SEQ ID NO: 47 (=1)

(Q) What measured ELISA luminescence signal at 10 nmol/L peptide, relative to SEQ ID NO: 47 (=1) goes with ECDTADYPQEWIQDVYQYLYK(COCH2)R (thioether 2-21 (inferred)) [cyclic peptide SEQ ID NO: 427] ?
(A) 0.1 to 0.5 ratio

(Q) // repeat for LCYLYQYLYTTK(COCH2)Y (thioether 2-12) [cyclic peptide SEQ ID NO: 362] and report
(A) 0.1 to 0.5 ratio

(Q) Can you check QCQLYYLYQYAYALK(COCH2)V (thioether 2-15) [cyclic peptide SEQ ID NO: 383] next?
(A) 0.1 to 0.5 ratio

(Q) Subsequent entry: YCEENYLDPEQYQYFIYFK(COCH2)T (thioether 2-19 (inferred)) [cyclic peptide SEQ ID NO: 317]
(A) ≥ 0.7 ratio

(Q) Proceed to QCPQEFINPVQWRYFQHYK(COCH2)N (thioether 2-19) [cyclic peptide SEQ ID NO: 99]
(A) 0.1 to 0.5 ratio

(Q) Consider next the binder KCPQNFINPVQWRYFQHYKA (not fully specified; thioether ring (C)-(K(acetyl))) [cyclic peptide SEQ ID NO: 67] in the same way.
(A) ≥ 0.7 ratio
